Taken from paper PMC11247503.

Biological target: mouse Spns2 (Mus musculus, UniProt Q91VM4)
Construct: expressed in transfected cells; host or cells: HeLa cells (G418-resistant pools)
Sequence (Q91VM4 whole entry): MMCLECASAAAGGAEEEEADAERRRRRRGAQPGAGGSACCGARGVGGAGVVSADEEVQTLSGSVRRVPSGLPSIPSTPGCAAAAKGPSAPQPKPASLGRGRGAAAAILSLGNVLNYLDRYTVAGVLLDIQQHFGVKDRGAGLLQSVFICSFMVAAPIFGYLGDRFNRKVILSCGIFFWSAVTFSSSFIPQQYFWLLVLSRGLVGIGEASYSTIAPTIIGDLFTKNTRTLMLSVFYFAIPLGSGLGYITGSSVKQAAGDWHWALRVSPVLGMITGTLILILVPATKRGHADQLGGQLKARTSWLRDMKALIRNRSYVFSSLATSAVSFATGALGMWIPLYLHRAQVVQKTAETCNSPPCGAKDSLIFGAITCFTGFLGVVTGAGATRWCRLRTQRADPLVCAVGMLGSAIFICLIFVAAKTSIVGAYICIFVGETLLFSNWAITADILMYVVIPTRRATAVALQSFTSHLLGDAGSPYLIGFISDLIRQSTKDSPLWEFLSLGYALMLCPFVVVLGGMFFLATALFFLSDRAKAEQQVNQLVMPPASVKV
Assay: HeLa cell S1P release assay (Spns2 inhibition)
Format: cell-based
Details: HeLa, 1 μM inhibitor; HeLa cells; S1P in media by LC-MS/MS; read-out: %Inhib. (Spns2 inhibition, percent decrease in S1P secretion relative to control)
Would you kindly list inhibition at 1 µM for each of these compounds?
Give bare numbers, in %.

Recorded results for 2 compounds are shown here.
{"COMPOUND": "CCCCCCCCCCc1ccc(C(=O)NCCCN)cc1", "inhibition at 1 µM / %": 39}
{"COMPOUND": "CCCCCCCCCCc1ccc(C(=O)NC2CCNCC2)cc1", "inhibition at 1 µM / %": 24}

Quick one: give me inhibition at 1 µM for each item below, same order please.
1. CCCCCCCCCCc1ccc(NC(=O)NCCCN)cc1 [11a]
2. CCCCCCCCCCc1ccc(N(C)C(=O)N2CCNCC2)cc1 [17a]
3. CCCCCCCCCCc1ccc(NC(=O)NC2CNC2)cc1 [11b]
4. CCCCCCCCCCc1ccc(C(=O)N2CCNCC2)cc1
5. CCCCCCCCCCc1ccc(NC(=O)O[C@H]2CCCNC2)cc1 [(S)-8e]
6. CCCCCCCCCCc1ccc(NC(=O)N[C@@H]2CCCNC2)cc1 [(R)-11e]

1. 53
2. 13
3. 59
4. 68
5. 48
6. 86

Quick one: give me inhibition at 1 µM for each item below, same order please.
1. CCCCCCCCCCc1ccc(NC(=O)N[C@H]2CCNC2)cc1 [(S)-11d]
2. CCCCCCCCCCc1ccc(NC(=O)N2CCN(C)CC2)cc1 [18a]

1. 44
2. 43
